# methodSummary: basal S. cerevisiae growth modulation, no modifier, primary screen, OD600, strain BY4716, 24 h, basal condition (AID 1173)
# experimentalContext: OD600, 24 h, higher = more signal, called active from +8 up or from −8 down
Decide using z-score: a value greater than or equal to -0.3 is T, a smaller one is F.

Is reported z-score greater than or equal to -0.3 here: C[C@H]1C2=C3C(CC[C@H]4C(OCc5ccc(F)cc5C(F)(F)F)OC[C@](C)([C@@H]34)N(C(=O)OC(C)(C)C)C2)C2COC(=O)OCC21 (stereo partly drawn) T

Is reported z-score greater than or equal to -0.3 here: Cc1ccc(S[C@]2(C(=O)NCc3ccccc3)CC(=O)N(C(C)C)[C@@H]2c2ccc(CO)cc2I)cc1 F

Is reported z-score greater than or equal to -0.3 here: CC(C)(C)OC(=O)CC[C@@]1(C(=O)O)N=C(c2ccc(OCCCO)cc2)O[C@@H]1c1ccccc1CN=[N+]=[N-] F

Is reported z-score greater than or equal to -0.3 here: CC(C)CN1C(=O)[C@@]2(Cc3ccccc31)c1ccccc1C(=O)N(Cc1ccccc1C(F)(F)F)[C@H]2c1ccc(CO)cc1 F

Is reported z-score greater than or equal to -0.3 here: CC(=O)N1Cc2ccccc2C[C@]2(N=C(c3ccc(OCCCO)cc3)O[C@@H]2c2ccccc2)C1=O F

Is reported z-score greater than or equal to -0.3 here: O=C(O)[C@H]1C[C@H]2C(=O)N3CCC[C@H]3C(=O)N2[C@H]1c1cccc(OCCO)c1 F

Is reported z-score greater than or equal to -0.3 here: [N-]=[N+]=NCc1ccccc1[C@H]1OC(c2ccc(OCCCO)cc2)=N[C@@]1(CCS(=O)(=O)c1ccccc1)C(N)=O T

Is reported z-score greater than or equal to -0.3 here: C=CCOC(=O)[C@H]1[C@@H]2C(=O)O[C@@H](c3ccccc3)[C@@H](c3ccccc3)N2[C@@H](c2ccc(OCCOC(=O)[C@H]3C[C@H]4C(=O)N[C@@H](Cc5ccccc5)C(=O)N4[C@H]3c3cccc(OCCO)c3)cc2)[C@]12C(=O)Nc1ccc(I)cc12 T
